# credit: patent EP4455142A1

Tested on: pyroglutamylated CD47
Assay: Assay 3 - cell-based potency assay (pyroglutamylation in live cells, total CD47/pE-CD47 dual staining, FACS)
Set-up: species or system human
Details: IC50 of CC2C6 signal; KBM7 cells, 72 hours incubation
Reported metric: IC50 (nM)
Give just the numeric value; nM need not be written.

{"Molecule": "O=C1OCC(c2ccc(C3CCC(F)(F)CC3)cc2)N1c1ccc2[nH]cnc2c1 (single isomer, unassigned) [(19)-ent2]", "Quantity unit": "nM", "IC50": 3730}

Ask: Enter reported IC50 observed with pyroglutamylated CD47 for O=C1OCC(c2ccc(N3CCCC3)cc2)N1c1ccc2[nH]cnc2c1 (single isomer, unassigned) [(18)-ent2]
Reply: 3490

* * *

Experiment: Low dose pharmacokinetics
Assay type: in vivo
Details: mouse, plasma, iv, 1 mg/kg; C57BI/6 mice, intravenously, 1 mg per kg bodyweight
Reported metric: half-life

Ask: I am curious: what half-life value has been reported for "O=C1OC[C@H](c2ccc(-c3cnn(C(F)(F)F)c3)cc2F)N1c1ccc2[nH]cnc2c1" ?
Reply: 239 to 275 min

* * *

Tested on: pyroglutamylated CD47
Assay: Assay 3 - cell-based potency assay (pyroglutamylation in live cells, total CD47/pE-CD47 dual staining, FACS)
Design: species or system human
Conditions: Homo sapiens, KBM-7, 72 h, IC50 of CC2C6 signal; KBM7 cells, 72 hours incubation
Listing: log10 IC50 of selected molecules
The figures below represent log10 of IC50, where IC50 is stated in nM.

{"Molecule": "O=C1OC[C@H](c2ccc(-c3cnn(CC(F)F)c3)cc2F)N1c1ccc2[nH]cnc2c1 [(15)]", "Study target": "pyroglutamylated CD47", "Reported result": 2.19}
{"Molecule": "O=C1OC[C@H](c2ccc(-c3cnn(CF)c3)cc2F)N1c1ccc2[nH]cnc2c1 [(13)]", "Study target": "pyroglutamylated CD47", "Reported result": 2.60}
{"Molecule": "O=C1OC[C@H](c2ccc(-c3ccc(C(F)(F)F)s3)cc2F)N1c1ccc2[nH]cnc2c1 [(8)]", "Study target": "pyroglutamylated CD47", "Reported result": 2.72}

Ask: I am curious: what log10 IC50 value has been reported for O=C1OCC(c2ccc(N3CCCC3)cc2)N1c1ccc2[nH]cnc2c1 (racemic) [(18)-Rac, reference compound] ?
Reply: 3.93

Ask: I am curious: what log10 IC50 value has been reported for O=C1OCC(c2ccc(C3CCC(F)(F)CC3)cc2)N1c1ccc2[nH]cnc2c1 (racemic) [(19)-Rac, reference compound] ?
Reply: 4.02

* * *

Experiment: Kinetic solubility
Assay type: physicochemical
Conditions: aqueous buffer; 50 mM phosphate buffer (pH 7.4), 24 hours at room temperature
Procedure: To assess the solubility of test compounds 10 µL of a 10 mM solution in DMSO was added to the lower chamber of a whatman miniuniprep (PTFE Filter Media with Polypropylene Housing) vial. 490 µL of 50 mM phosphate buffer (pH 7.4) was added to the lower chamber, the samples were vortexed for at least two minutes and then shaken on a shaker for 24 hours at room temperature at the speed of 880 rpm. […]
Listing: solubility at 24 h of selected molecules
Give just the numeric value; µM need not be written.

{"Molecule": "O=C1OCC(c2cc(F)cc(C(F)(F)F)c2)N1c1ccc2[nH]cnc2c1 (single isomer, unassigned)", "solubility at 24 h [µM]": 39}
{"Molecule": "O=C1OCC(c2ccc(C3CCC(F)(F)CC3)cc2)N1c1ccc2[nH]cnc2c1 (single isomer, unassigned)", "solubility at 24 h [µM]": 42}

Ask: I am curious: what solubility at 24 h value has been reported for O=C1OCC(c2ccc(N3CCCC3)cc2)N1c1ccc2[nH]cnc2c1 (single isomer, unassigned) ?
Reply: 60

Ask: I am curious: what solubility at 24 h value has been reported for "O=C1OC[C@H](c2ccc(-c3cnn(C(F)(F)F)c3)cc2F)N1c1ccc2[nH]cnc2c1" ?
Reply: 121

* * *

Molecular target: human isoQC (Homo sapiens, UniProt Q9NXS2)
Construct: The Golgi luminal, enzymatically active region of human isoQC (S53-L382; see, e.g., Huang et al., 2011); GST (with enterokinase site) (N, cleaved yes); made in house; host or cells: E. coli
Sequence (Q9NXS2 53-382): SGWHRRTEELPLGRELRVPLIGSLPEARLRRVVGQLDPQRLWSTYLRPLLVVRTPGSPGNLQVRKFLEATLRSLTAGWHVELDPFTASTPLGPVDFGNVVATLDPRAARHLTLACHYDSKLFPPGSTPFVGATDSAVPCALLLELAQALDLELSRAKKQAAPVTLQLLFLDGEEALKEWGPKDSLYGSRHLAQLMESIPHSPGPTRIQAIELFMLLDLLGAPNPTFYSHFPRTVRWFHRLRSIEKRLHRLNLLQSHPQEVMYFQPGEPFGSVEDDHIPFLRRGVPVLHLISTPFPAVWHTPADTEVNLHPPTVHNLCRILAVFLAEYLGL
Test: Assay 1 - isoQC potency, fluorescent enzymatic assay (H-Gln-AMC, coupled pGAPase detection)
Format: biochemical
Conditions: recombinant isoQC, 1 hour at 37°C
We label by threshold. Values of IC50 strictly beneath 8 nM are Y. Values of 8 nM and up are N.

Ask: For this compound, is IC50 lower than 8 nM? O=C1OCC(c2ccc(N3CCCC3)cc2)N1c1ccc2[nH]cnc2c1 (single isomer, unassigned) [(18)-ent2]
Reply: N

Ask: For this compound, is IC50 lower than 8 nM? "O=C1OC[C@H](c2ccc(-c3cnn(C(F)(F)F)c3)cc2F)N1c1ccc2[nH]cnc2c1"
Reply: Y

Ask: For this compound, is IC50 lower than 8 nM? "O=C1OC[C@H](c2ccc(-c3ccn(C(F)(F)F)n3)cc2F)N1c1ccc2[nH]cnc2c1"
Reply: Y

Ask: For this compound, is IC50 lower than 8 nM? "O=C1OC[C@H](c2ccc(-c3noc(C(F)(F)F)n3)cc2F)N1c1ccc2[nH]cnc2c1"
Reply: N

Ask: For this compound, is IC50 lower than 8 nM? O=C1OCC(c2ccc(N3CCCC3)cc2)N1c1ccc2[nH]cnc2c1 (single isomer, unassigned) [(18)-ent1, reference compound]
Reply: N

Ask: For this compound, is IC50 lower than 8 nM? "O=C1OC[C@H](c2ccc(-c3cc(C(F)(F)F)no3)cc2F)N1c1ccc2[nH]cnc2c1"
Reply: Y

Ask: For this compound, is IC50 lower than 8 nM? O=C1OCC(c2cc(F)cc(C(F)(F)F)c2)N1c1ccc2[nH]cnc2c1 (single isomer, unassigned) [(17)-ent1, reference compound]
Reply: N

Ask: For this compound, is IC50 lower than 8 nM? O=C1OCC(c2ccc(C3CCC(F)(F)CC3)cc2)N1c1ccc2[nH]cnc2c1 (racemic) [(19)-Rac, reference compound]
Reply: N

* * *

Test: Microsomal stability, mouse (MLM)
Type: in vitro ADME, CD-1 mouse
Settings: mouse liver microsomes, 0.5 mg protein/mL, 1 µM test compound
Reported metric: CLint scaled at 1 µM (mL/min/kg)
Give just the numeric value; mL/min/kg need not be written.

Take a look at these entries with their results.
{"Molecule": "O=C1OCC(c2ccc(C3CCC(F)(F)CC3)cc2)N1c1ccc2[nH]cnc2c1 (single isomer, unassigned) [(19)-ent2]", "Quantity unit": "mL/min/kg", "CLint scaled at 1 µM": 339}
{"Molecule": "O=C1OCC(c2ccc(N3CCCC3)cc2)N1c1ccc2[nH]cnc2c1 (single isomer, unassigned) [(18)-ent2]", "Quantity unit": "mL/min/kg", "CLint scaled at 1 µM": 488}
{"Molecule": "O=C1OC[C@H](c2ccc(-c3cnn(C(F)(F)F)c3)cc2F)N1c1ccc2[nH]cnc2c1 [Compound (1)]", "Quantity unit": "mL/min/kg", "CLint scaled at 1 µM": 67.5}

Ask: I am curious: what CLint scaled at 1 µM value has been reported for O=C1OCC(c2cc(F)cc(C(F)(F)F)c2)N1c1ccc2[nH]cnc2c1 (single isomer, unassigned) [(17)-ent2] ?
Reply: 182

* * *

Target: recombinant QC enzyme (Homo sapiens, UniProt Q16769)
Construct: bacterial expression of residues 33-361 of uniprot ID Q16769, fused to a His tag; His tag (cleaved yes); made in house
Sequence (Q16769 33-361): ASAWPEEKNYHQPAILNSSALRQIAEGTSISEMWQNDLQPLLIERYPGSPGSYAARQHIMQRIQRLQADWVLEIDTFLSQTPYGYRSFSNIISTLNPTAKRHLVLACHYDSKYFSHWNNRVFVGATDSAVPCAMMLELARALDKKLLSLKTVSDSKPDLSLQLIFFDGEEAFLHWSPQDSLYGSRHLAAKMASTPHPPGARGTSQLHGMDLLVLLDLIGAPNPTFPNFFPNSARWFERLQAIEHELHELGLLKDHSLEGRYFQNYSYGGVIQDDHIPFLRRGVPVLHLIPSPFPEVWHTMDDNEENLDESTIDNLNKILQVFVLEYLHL
Test: Assay 2 - QC potency, fluorescent enzymatic assay (H-Gln-AMC, coupled pGAPase detection)
Assay type: biochemical
Details: 1 hour at 37°C
We label by threshold. Values of IC50 strictly beneath 10 nM are condition met. Values of 10 nM and up are condition not met.

Ask: For this compound, is IC50 lower than 10 nM? "O=C1OC[C@H](c2ccc(-c3ccc(C(F)(F)F)o3)cc2F)N1c1ccc2[nH]cnc2c1"
Reply: condition not met

Ask: For this compound, is IC50 lower than 10 nM? O=C1OC[C@H](c2ccc(-c3cnn(C4CC4(F)F)c3)cc2F)N1c1ccc2[nH]cnc2c1 (stereo partly drawn)
Reply: condition not met

* * *

Listing: log10 of IC50 of selected molecules
Target: human isoQC (Homo sapiens)
Construct: The Golgi luminal, enzymatically active region of human isoQC (S53-L382; see, e.g., Huang et al., 2011); GST (with enterokinase site) (N, cleaved yes); made in house; host or cells: E. coli
Assay: Assay 1 - isoQC potency, fluorescent enzymatic assay (H-Gln-AMC, coupled pGAPase detection)
Type: biochemical
Conditions: recombinant isoQC, 1 hour at 37°C
The figures below represent log10 of IC50, where IC50 is stated in nM.

{"Molecule": "O=C1OCC(c2cc(F)cc(C(F)(F)F)c2)N1c1ccc2[nH]cnc2c1 (racemic) [(17)-Rac, reference compound]", "log10 of IC50": 3.08}
{"Molecule": "O=C1OC[C@H](c2ccc(-c3cnn(C(F)(F)F)c3)c(F)c2F)N1c1ccc2[nH]cnc2c1 [(2)]", "log10 of IC50": 0.60}
{"Molecule": "O=C1OC[C@H](c2ccc(-c3ccc(C(F)(F)F)o3)cc2F)N1c1ccc2[nH]cnc2c1 [(7)]", "log10 of IC50": 1.00}
{"Molecule": "O=C1OCC(c2ccc(N3CCCC3)cc2)N1c1ccc2[nH]cnc2c1 (racemic) [(18)-Rac, reference compound]", "log10 of IC50": 1.68}
{"Molecule": "O=C1OCC(c2cc(F)cc(C(F)(F)F)c2)N1c1ccc2[nH]cnc2c1 (single isomer, unassigned) [(17)-ent2]", "log10 of IC50": 2.80}
{"Molecule": "O=C1OCC(c2ccc(C3CCC(F)(F)CC3)cc2)N1c1ccc2[nH]cnc2c1 (single isomer, unassigned) [(19)-ent1, reference compound]", "log10 of IC50": 3.09}
{"Molecule": "O=C1OC[C@H](c2ccc(-c3cnn(CC(F)F)c3)cc2F)N1c1ccc2[nH]cnc2c1 [(15)]", "log10 of IC50": 0.43}

Ask: I am curious: what log10 of IC50 value has been reported for O=C1OC[C@H](c2ccc(-c3nc(C(F)(F)F)cs3)cc2F)N1c1ccc2[nH]cnc2c1 [(9)] ?
Reply: 0.95
